pKi: −log10 of the molar value.
As a worked illustration, we turn to pKi data collected for Mu-type opioid receptor (Rattus norvegicus, UniProt P33535).

{"SUBSTANCE SMILES": "Oc1ccc2c3c1O[C@H]1c4ncc(-n5cccc5)cc4C[C@@]4(O)[C@@H](C2)N(CC2CC2)CC[C@]314", "pKi": 7.72}
{"SUBSTANCE SMILES": "N=C(N)Nc1cnc2c(c1)C[C@@]1(O)[C@H]3Cc4ccc(O)c5c4[C@@]1(CCN3CC1CC1)[C@H]2O5", "pKi": 7.59}
{"SUBSTANCE SMILES": "O=[N+]([O-])c1cnc2c(c1)C[C@@]1(O)[C@H]3Cc4ccc(O)c5c4[C@@]1(CCN3CC1CC1)[C@H]2O5", "pKi": 7.76}
{"SUBSTANCE SMILES": "Oc1ccc2c3c1O[C@H]1c4ncc(CNc5ccccc5)cc4C[C@@]4(O)[C@@H](C2)N(CC2CC2)CC[C@]314", "pKi": 8.22}
{"SUBSTANCE SMILES": "Oc1ccc2c3c1O[C@H]1c4ncc(NCc5ccccc5)cc4C[C@@]4(O)[C@@H](C2)N(CC2CC2)CC[C@]314", "pKi": 7.82}
{"SUBSTANCE SMILES": "Oc1ccc2c3c1O[C@H]1c4ncc(Br)cc4C[C@@]4(O)[C@@H](C2)N(CC2CC2)CC[C@]314", "pKi": 7.81}
{"SUBSTANCE SMILES": "N#Cc1cnc2c(c1)C[C@@]1(O)[C@H]3Cc4ccc(O)c5c4[C@@]1(CCN3CC1CC1)[C@H]2O5", "pKi": 7.80}

###

# SYSTEM: Mu-type opioid receptor (Cavia porcellus) (UniProt P97266)
# Sequence (P97266 whole entry): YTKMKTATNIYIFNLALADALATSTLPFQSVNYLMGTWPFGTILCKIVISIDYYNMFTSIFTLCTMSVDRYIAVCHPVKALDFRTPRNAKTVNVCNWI
# ASSAY EXPLANATION: Antagonist potency against mu opioid receptor was measured in guinea-pig ileal longitudinal muscle using PL-017
# Assay type: functional
Could you label it Y if measured Ke is 50 nM or higher, and N otherwise?

{"SUBSTANCE SMILES": "N#Cc1cnc2c(c1)C[C@@]1(O)[C@H]3Cc4ccc(O)c5c4[C@@]1(CCN3CC1CC1)[C@H]2O5", "LABEL CLASS": "Y"}
{"SUBSTANCE SMILES": "N=C(N)Nc1cnc2c(c1)C[C@@]1(O)[C@H]3Cc4ccc(O)c5c4[C@@]1(CCN3CC1CC1)[C@H]2O5", "LABEL CLASS": "Y"}
{"SUBSTANCE SMILES": "O=[N+]([O-])c1cnc2c(c1)C[C@@]1(O)[C@H]3Cc4ccc(O)c5c4[C@@]1(CCN3CC1CC1)[C@H]2O5", "LABEL CLASS": "Y"}
{"SUBSTANCE SMILES": "Oc1ccc2c3c1O[C@H]1c4ncc(-n5cccc5)cc4C[C@@]4(O)[C@@H](C2)N(CC2CC2)CC[C@]314", "LABEL CLASS": "Y"}
{"SUBSTANCE SMILES": "Oc1ccc2c3c1O[C@H]1c4ncc(Br)cc4C[C@@]4(O)[C@@H](C2)N(CC2CC2)CC[C@]314", "LABEL CLASS": "N"}
{"SUBSTANCE SMILES": "Oc1ccc2c3c1O[C@H]1c4ncc(NCc5ccccc5)cc4C[C@@]4(O)[C@@H](C2)N(CC2CC2)CC[C@]314", "LABEL CLASS": "N"}
{"SUBSTANCE SMILES": "Oc1ccc2c3c1O[C@H]1c4ncc(CNc5ccccc5)cc4C[C@@]4(O)[C@@H](C2)N(CC2CC2)CC[C@]314", "LABEL CLASS": "N"}
{"SUBSTANCE SMILES": "Nc1cnc2c(c1)C[C@@]1(O)[C@H]3Cc4ccc(O)c5c4[C@@]1(CCN3CC1CC1)[C@H]2O5", "LABEL CLASS": "N"}
